- target: LRRK2 WT (Homo sapiens)
- Construct: purchased Life Technologies PR8604B
- procedure_summary: LRRK2 Kinase Activity Assay (LanthaScreen TR-FRET), wild type
- Format: biochemical
- condition_summary: recombinant wild type LRRK2, 25 μM ATP, 400 nM LRRKtide, 60 min; class symbols
reported_endpoint: IC50

compound: N#Cc1ccc2c(c1)CC[C@@H]2Nc1ccc2[nH]nc(-c3cnn(C(F)F)c3)c2c1 (single isomer, unassigned) [Example 12, enantiomer 2]
IC50: < 100 nM
--
compound: N#Cc1cnc2c(c1)CCC[C@@H]2Oc1ccc2[nH]nc(I)c2c1 (single isomer, unassigned) [Example 137, enantiomer 2]
IC50: 100 to 1000 nM
--
compound: N#Cc1nc2c(s1)[C@@H](Nc1ccc3[nH]nc(-c4cnco4)c3c1)CCC2 (single isomer, unassigned) [Example 47, enantiomer 2]
IC50: < 100 nM
--
compound: C[C@H]1CCc2cc(C#N)ccc2[C@H]1Oc1ccc2[nH]nc(-c3cnco3)c2c1 (single isomer, unassigned) [175, enantiomer 1]
IC50: 100 to 1000 nM

[in] Please look up its IC50: N#Cc1cnc2c(c1C(F)F)CCC[C@@H]2Nc1ccc2[nH]nc(-c3cnco3)c2c1 (single isomer, unassigned) [Example 147, enantiomer 2]
[out] 100 to 1000 nM

[in] Given COc1c(C#N)ccc2c1CC[C@@H]2Nc1ccc2[nH]nc(-c3cnco3)c2c1 (single isomer, unassigned) [Example 113, enantiomer 2] , state its recorded IC50.
[out] < 100 nM

[in] What measured IC50 goes with C[C@H]1C[C@@H](Nc2ccc3[nH]nc(-c4cnco4)c3c2)c2ccc(C#N)cc21 (single isomer, unassigned) [Example 169, enantiomer 2] ?
[out] 100 to 1000 nM

[in] Please report the recorded IC50 for C[C@@H]1CCc2cc(C#N)ccc2[C@H]1Nc1ccc2[nH]nc(-c3cnco3)c2c1 (single isomer, unassigned) [Example 174, enantiomer 1] .
[out] < 100 nM

[in] Using the record for Cc1c(C#N)ccc2c1CC[C@@H]2Nc1ccc2[nH]nc(-c3cnco3)c2c1 (single isomer, unassigned) [Example 27, enantiomer 2] , report its IC50.
[out] < 100 nM

* * *

- target: LRRK2 WT (Homo sapiens)
- Construct: purchased Life Technologies PR8604B
- procedure_summary: LRRK2 Kinase Activity Assay (LanthaScreen TR-FRET), wild type
- Assay type: biochemical
- condition_summary: recombinant wild type LRRK2, 25 μM ATP, 400 nM LRRKtide, 60 min; class symbols
pIC50: −log10 of the molar value.
reported_endpoint: pIC50

[in] Which pIC50 value is on record for Cc1ncc(-c2n[nH]c3ccc(N[C@@H]4c5ccc(C#N)cc5CC4(F)F)cc23)o1 (single isomer, unassigned) [Example 155, enantiomer 2] ?
[out] > 7.00

[in] Any idea what its pIC50 is? The compound is COc1cc2c(cc1C#N)CCC[C@@H]2Nc1ccc2[nH]nc(-c3cnoc3)c2c1 (single isomer, unassigned) [Example 114, enantiomer 2]
[out] > 7.00

[in] # lookup: pIC50 of N#Cc1ccc2c(c1)CCC[C@@H]2Nc1ccc2[nH]nc(-c3cncc(C4CC4)c3)c2c1 (single isomer, unassigned)
[out] > 7.00

* * *

- target: LRRK2 WT (Homo sapiens, UniProt Q5S007)
- Construct: purchased Life Technologies PR8604B
- Sequence (Q5S007 whole entry): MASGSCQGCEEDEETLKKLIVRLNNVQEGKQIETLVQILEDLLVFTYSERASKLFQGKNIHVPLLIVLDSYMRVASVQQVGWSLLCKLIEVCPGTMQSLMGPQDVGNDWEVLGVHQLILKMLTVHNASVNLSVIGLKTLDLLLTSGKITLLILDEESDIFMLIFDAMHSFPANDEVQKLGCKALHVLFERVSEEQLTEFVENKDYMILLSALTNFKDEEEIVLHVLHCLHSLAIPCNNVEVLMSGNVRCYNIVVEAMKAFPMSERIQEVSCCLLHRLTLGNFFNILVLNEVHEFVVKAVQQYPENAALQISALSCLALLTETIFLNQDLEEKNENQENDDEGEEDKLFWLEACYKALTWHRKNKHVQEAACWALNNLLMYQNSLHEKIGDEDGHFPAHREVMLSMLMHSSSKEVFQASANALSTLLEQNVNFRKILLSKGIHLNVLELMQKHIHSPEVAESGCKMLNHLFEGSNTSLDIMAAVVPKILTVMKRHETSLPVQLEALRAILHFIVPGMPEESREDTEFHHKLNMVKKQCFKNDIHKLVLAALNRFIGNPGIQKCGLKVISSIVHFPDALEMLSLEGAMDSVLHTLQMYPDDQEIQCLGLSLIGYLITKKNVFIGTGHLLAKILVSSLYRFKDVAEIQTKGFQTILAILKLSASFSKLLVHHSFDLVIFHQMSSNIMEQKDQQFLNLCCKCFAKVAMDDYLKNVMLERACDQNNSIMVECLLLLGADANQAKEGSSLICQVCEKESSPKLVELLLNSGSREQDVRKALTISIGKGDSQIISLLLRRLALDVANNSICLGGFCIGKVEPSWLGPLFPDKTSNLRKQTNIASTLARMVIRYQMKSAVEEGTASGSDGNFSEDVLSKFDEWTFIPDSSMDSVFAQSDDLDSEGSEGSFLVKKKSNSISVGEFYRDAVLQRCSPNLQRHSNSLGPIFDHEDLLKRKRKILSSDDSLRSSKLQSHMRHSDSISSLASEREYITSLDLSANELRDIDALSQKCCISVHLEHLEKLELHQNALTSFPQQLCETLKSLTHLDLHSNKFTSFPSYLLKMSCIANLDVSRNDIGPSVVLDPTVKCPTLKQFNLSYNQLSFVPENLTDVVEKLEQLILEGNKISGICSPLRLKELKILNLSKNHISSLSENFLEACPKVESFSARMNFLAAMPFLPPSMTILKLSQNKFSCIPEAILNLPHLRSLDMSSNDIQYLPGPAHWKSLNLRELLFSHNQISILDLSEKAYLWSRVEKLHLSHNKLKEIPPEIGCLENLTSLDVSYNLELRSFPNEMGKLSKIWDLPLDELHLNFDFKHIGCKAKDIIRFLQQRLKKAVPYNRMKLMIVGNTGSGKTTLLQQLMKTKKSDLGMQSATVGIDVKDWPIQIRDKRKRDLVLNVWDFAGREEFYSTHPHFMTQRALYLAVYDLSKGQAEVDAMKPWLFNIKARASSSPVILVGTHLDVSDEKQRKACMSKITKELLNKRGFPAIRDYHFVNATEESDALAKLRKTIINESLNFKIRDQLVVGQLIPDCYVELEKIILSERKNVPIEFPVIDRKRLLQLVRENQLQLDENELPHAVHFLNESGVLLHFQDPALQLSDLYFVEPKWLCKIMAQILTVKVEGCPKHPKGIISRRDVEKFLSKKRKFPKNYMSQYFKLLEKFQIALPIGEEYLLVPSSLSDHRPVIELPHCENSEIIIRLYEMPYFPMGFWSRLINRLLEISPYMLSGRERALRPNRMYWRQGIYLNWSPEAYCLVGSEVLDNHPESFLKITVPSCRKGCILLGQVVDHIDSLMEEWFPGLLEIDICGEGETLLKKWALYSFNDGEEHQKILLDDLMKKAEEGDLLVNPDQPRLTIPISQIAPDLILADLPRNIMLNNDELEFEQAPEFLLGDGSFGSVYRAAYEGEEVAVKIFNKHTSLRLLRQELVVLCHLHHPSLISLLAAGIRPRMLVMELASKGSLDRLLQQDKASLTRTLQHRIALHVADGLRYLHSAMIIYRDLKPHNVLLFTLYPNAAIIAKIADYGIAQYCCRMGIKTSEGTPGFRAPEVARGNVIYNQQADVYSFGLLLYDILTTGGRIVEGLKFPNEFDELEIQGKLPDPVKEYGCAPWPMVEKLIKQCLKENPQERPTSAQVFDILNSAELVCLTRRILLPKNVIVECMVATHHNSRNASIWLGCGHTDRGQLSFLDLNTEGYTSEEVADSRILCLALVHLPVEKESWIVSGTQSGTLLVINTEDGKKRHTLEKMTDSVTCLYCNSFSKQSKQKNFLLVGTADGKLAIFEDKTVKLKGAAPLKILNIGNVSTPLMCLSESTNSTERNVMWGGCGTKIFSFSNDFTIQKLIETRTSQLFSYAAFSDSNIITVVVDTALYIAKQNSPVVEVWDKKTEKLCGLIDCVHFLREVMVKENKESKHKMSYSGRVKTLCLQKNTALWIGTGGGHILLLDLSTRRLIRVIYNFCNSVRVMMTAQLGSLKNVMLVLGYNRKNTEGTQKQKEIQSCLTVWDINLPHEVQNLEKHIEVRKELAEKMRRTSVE
- procedure_summary: LRRK2 Kinase Activity Assay (LanthaScreen TR-FRET), wild type
- Format: biochemical
- condition_summary: recombinant wild type LRRK2, 25 μM ATP, 400 nM LRRKtide, 60 min; class symbols
pIC50: −log10 of the molar value.
reported_endpoint: pIC50

compound: N#Cc1cnc2c(n1)CCC[C@@H]2Oc1ccc2[nH]nc(-c3cnco3)c2c1 (single isomer, unassigned) [Example 163, enantiomer 2]
pIC50: > 7.00
//
compound: N#Cc1ccc2c(c1)CCC[C@@H]2Oc1ccc2[nH]nc(-c3ccnc(N4CCOCC4)c3)c2c1 (single isomer, unassigned) [Example 39, enantiomer 1]
pIC50: > 7.00

[in] May I ask what pIC50 has been recorded for N#Cc1ccc2c(n1)CCC[C@H]2Oc1ccc2[nH]nc(C3CC3)c2c1 (single isomer, unassigned) [Example 133, enantiomer 2] ?
[out] 5.00 to 6.00

Values from patent US20230148214A1
